# Test system: Escherichia coli TOP10
# experimentSummary: shrunken log2 fold change of peptide-encoding DNA abundance (4.5 h post-induction vs induction); higher = less antimicrobial activity (less host growth inhibition)
# protocolConditions: time post-induction: 4.5 h; library: site-saturation at positions 5, 18, 19, 20
Reported shrunken log2 fold change values follow for various sequences
Simply state the number, no unit and no words.

>>> reported("RRIRPRPPRLPRPRPRPGYMPRP")
-0.126
>>> reported("RRIRIRPPRLPRPRPRPGTNPRP")
-0.314

Request: Which value of shrunken log2 fold change has been reported for RRIRMRPPRLPRPRPRPTWAPRP in the records?
Result: 0.192

Request: // lookup shrunken log2 fold change for RRIRNRPPRLPRPRPRPQWMPRP
Result: -0.0995

* * *

The entries below are paired with their reported shrunken log2 fold change.
# System: Escherichia coli TOP10
# experimentSummary: shrunken log2 fold change of peptide-encoding DNA abundance (4.5 h post-induction vs induction); higher = less antimicrobial activity (less host growth inhibition)
# protocolConditions: time post-induction: 4.5 h; library: site-saturation at positions 5, 18, 19, 20
Answer as a number with no unit attached.

Worked cases, answers included:
>>> reported("RRIRQRPPRLPRPRPRPTCWPRP")
0.0954
>>> reported("RRIRNRPPRLPRPRPRPHNWPRP")
-0.391
>>> reported("RRIRRRPPRLPRPRPRPAYYPRP")
0.0681

Request: Consider the sequence shown here: RRIRSRPPRLPRPRPRPCMDPRP What is its recorded shrunken log2 fold change?
Result: -0.0717

Request: Fill in: shrunken log2 fold change of RRIRLRPPRLPRPRPRPMAKPRP is ___
Result: 0.109

Request: Could you share which shrunken log2 fold change value was measured for RRIRFRPPRLPRPRPRPAFYPRP ?
Result: -0.249

Request: What measured shrunken log2 fold change goes with RRIRERPPRLPRPRPRPTAVPRP ?
Result: -0.113

Request: Field request: shrunken log2 fold change | item: RRIRARPPRLPRPRPRPNQEPRP
Result: -0.000902

* * *

# Test system: Escherichia coli TOP10;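 note: peptides expressed intracellularly from a pBAD plasmid library in pooled LB shake-flask culture, induced with 0.3% L-arabinose, DNA abundance read by NGS, three biological replicates, DESeq2 with apeglm shrinkage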
# experimentSummary: shrunken log2 fold change of peptide-encoding DNA abundance (4.5 h post-induction vs induction); higher = less antimicrobial activity (less host growth inhibition)
# protocolConditions: time post-induction: 4.5 h; library: site-saturation at positions 5, 18, 19, 20
readoutName: shrunken log2 fold change
Reply: number alone, nothing else.

These solved cases illustrate the format of a correct answer.
>>> reported("RRIRLRPPRLPRPRPRPVYAPRP")
0.00563
>>> reported("RRIRGRPPRLPRPRPRPHYYPRP")
-0.119
>>> reported("RRIRMRPPRLPRPRPRPNAVPRP")
0.0414
>>> reported("RRIRWRPPRLPRPRPRPDTLPRP")
-0.134
>>> reported("RRIRSRPPRLPRPRPRPAVGPRP")
0.391
>>> reported("RRIRRRPPRLPRPRPRPVDSPRP")
0.127

Request: Name the recorded shrunken log2 fold change for RRIRMRPPRLPRPRPRPDIFPRP .
Result: 0.118

Request: Need shrunken log2 fold change of RRIRIRPPRLPRPRPRPIENPRP , thanks.
Result: -0.223

Request: Given the sequence RRIRGRPPRLPRPRPRPEWSPRP , what is its reported shrunken log2 fold change?
Result: 0.644

Request: What does the record list as shrunken log2 fold change for RRIRFRPPRLPRPRPRPNVDPRP ?
Result: -0.0445

Request: What measured shrunken log2 fold change goes with RRIRVRPPRLPRPRPRPDFMPRP ?
Result: -0.0875

Request: Looking for the measured shrunken log2 fold change of RRIRKRPPRLPRPRPRPHFRPRP , can you help?
Result: -0.138

Request: Which shrunken log2 fold change is listed for RRIRCRPPRLPRPRPRPAFDPRP ?
Result: 0.253

Request: Would you mind telling me what shrunken log2 fold change value was observed for RRIRVRPPRLPRPRPRPYWFPRP ?
Result: -0.396

Request: Would you mind telling me what shrunken log2 fold change value was observed for RRIRIRPPRLPRPRPRPRMDPRP ?
Result: -0.389

Recorded values, source the supplement of paper PMC9112550.
